Target: T1, recombinant human IL-23R/Fc chimera (R&D Systems) (human, UniProt Q5VWK5 24-353)
T1 construct: bought; also called human IL-23R/Fc fusion protein; rhIL23RFc
T1 sequence (looked up): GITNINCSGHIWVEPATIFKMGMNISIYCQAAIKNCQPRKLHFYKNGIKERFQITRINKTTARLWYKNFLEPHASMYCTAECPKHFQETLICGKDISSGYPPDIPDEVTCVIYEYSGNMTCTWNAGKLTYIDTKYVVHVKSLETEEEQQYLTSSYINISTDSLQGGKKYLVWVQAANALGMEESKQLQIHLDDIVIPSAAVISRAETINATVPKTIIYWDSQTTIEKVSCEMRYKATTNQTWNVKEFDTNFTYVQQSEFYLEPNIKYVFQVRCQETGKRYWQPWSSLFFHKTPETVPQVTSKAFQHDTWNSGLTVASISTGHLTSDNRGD
Assay: competition ELISA against IL-23
Assay Readout: Ratio IC50 to 056-53.H4E IC50 (ratio)
Kindly answer with a numeric value in ratio, unit omitted.

Consider the following illustrative entries.
[
  {
    "Binder": "105-08-2C6 ATRIMER (designed binder) EPPTQKPKKIVNAKKDVVNTKMFEELKSRLDTLAQEVALLKEQQALQTVCLKGTKVHMKCFLAFTQTKTFHEASEDCISRGGTLSTPQTGSENDALYEYLRQSVGNEAEIWLGLNGSQRTDTWVDMTGARIAYKNWETEITAQPDGGWGYFGENCAVLSGAANGKWFDKRCRDQLPYICQFGIV",
    "Measurement Unit": "ratio",
    "Measured": 3.6
  },
  {
    "Binder": "105-08-2C4 ATRIMER (designed binder, Homotrimer of the given chain (ATRIMER complex).) EPPTQKPKKIVNAKKDVVNTKMFEELKSRLDTLAQEVALLKEQQALQTVCLKGTKVHMKCFLAFTQTKTFHEASEDCISRGGTLSTPQTGSENDALYEYLRQSVGNEAEIWLGLNGSLLTNTWVDMTGARIAYKNWETEITAQPDGGFGYFGENCAVLSGAANGKWFDKRCRDQLPYICQFGIV",
    "Measurement Unit": "ratio",
    "Measured": 2.9
  },
  {
    "Binder": "101-51-1A10 ATRIMER (designed binder, ATRIMER is a homotrimer; one protomer is given., not shown: C-terminal purification tag: Myc/His6 (pANA4) or HA-StrepII (pANA10)) EPPTQKPKKIVNAKKDVVNTKMFEELKSRLDTLAQEVALLKEQQALQTVCLKGTKVHMKCFLAFTQTKTFHEASEDCISRGGTLSTPQTGSENDALYEYLRQSVGNEAEIWLGLNGSALTNTWVDMTGARIAYKNWEHPLPPQPSGGFGYFGENCAVLSGAANGKWFDKRCRDQLPYICQFGIV",
    "Measurement Unit": "ratio",
    "Measured": 8.7
  }
]

// below: Ratio IC50 to 056-53.H4E IC50 requested for another binder
Kindly note the recorded Ratio IC50 to 056-53.H4E IC50 for 105-08-2G1 ATRIMER (designed binder) EPPTQKPKKIVNAKKDVVNTKMFEELKSRLDTLAQEVALLKEQQALQTVCLKGTKVHMKCFLAFTQTKTFHEASEDCISRGGTLSTPQTGSENDALYEYLRQSVGNEAEIWLGLNGSPKTHTWVDMTGARIAYKNWETEITAQPDGGFGYFGENCAVLSGAANGKWFDKRCRDQLPYICQFGIV , which is 2.2
